# STUDY TARGET: JAK3 (Homo sapiens)
# Sequence (P52333 1-1124): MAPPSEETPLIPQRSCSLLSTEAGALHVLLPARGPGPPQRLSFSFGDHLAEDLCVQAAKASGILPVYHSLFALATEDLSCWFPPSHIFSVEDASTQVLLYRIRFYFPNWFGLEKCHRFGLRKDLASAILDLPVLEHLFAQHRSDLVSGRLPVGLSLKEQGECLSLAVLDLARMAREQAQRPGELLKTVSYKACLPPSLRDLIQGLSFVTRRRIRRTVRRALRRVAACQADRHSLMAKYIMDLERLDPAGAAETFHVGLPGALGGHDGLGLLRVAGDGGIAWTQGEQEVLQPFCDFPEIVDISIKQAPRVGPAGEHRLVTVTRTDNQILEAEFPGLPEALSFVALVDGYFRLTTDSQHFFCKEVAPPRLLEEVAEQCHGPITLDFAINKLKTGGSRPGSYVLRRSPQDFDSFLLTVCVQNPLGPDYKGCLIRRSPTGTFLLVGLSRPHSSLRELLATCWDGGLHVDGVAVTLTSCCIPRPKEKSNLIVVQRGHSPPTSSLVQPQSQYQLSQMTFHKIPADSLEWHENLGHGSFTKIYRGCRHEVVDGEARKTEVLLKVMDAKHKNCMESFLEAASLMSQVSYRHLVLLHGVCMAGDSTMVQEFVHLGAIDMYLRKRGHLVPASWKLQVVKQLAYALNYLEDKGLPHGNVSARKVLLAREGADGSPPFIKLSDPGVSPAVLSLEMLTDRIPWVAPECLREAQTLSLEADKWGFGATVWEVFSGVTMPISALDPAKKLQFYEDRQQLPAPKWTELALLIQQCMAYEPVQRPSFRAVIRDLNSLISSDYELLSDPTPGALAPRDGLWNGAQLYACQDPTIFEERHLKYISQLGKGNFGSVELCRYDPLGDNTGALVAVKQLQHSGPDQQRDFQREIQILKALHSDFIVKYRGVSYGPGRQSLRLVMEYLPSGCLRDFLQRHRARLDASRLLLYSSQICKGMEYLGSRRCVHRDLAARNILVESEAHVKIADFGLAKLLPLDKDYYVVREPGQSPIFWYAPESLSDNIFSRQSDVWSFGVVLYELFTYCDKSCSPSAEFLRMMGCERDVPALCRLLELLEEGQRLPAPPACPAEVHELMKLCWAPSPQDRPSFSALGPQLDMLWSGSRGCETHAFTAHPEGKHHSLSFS
PROPERTY: pIC50
In simple prose, pIC50 is minus the logarithm base ten of a concentration in moles per litre.

Sample CCS(=O)(=O)N1CC(CC#N)(n2cc(-c3ccnc4[nH]ccc34)cn2)C1 [Crystalline form A] — what was its pIC50?
7.79
